Molecular target: full-length T877A-AR (VP16 fusion) (human)
Test: two-hybrid
Mark 1 for two-hybrid reporter activity (Gal-4 = 1) under 3000, -1 if at or over.

binder	category
STFESLYNNMTA [C33 (Gal-4 fusion)]	1
SKFSQLYSYEPP [B49 (Gal-4 fusion)]	1
EASNSSFARLFH [B426 (Gal-4 fusion)]	-1

Bench note: check whether ANSSFRDWYTSS [B46 (Gal-4 fusion)] shows two-hybrid reporter activity (Gal-4 = 1) below 3000
1

Could you please tell me whether two-hybrid reporter activity (Gal-4 = 1) recorded for HASPFEMHYLLG [HF-26 (Gal-4 fusion)] is less than 3000?
-1

Data credit: paper PMC4253602
